For each entry below, report its glycan array binding signal (z-score) value.
Biological target: Gal(a1-3)Gal(b1-3)[Fuc(a1-4)]GlcNAc(b1-2)Man(a1-3)[Gal(a1-3)Gal(b1-3)[Fuc(a1-4)]GlcNAc(b1-2)Man(a1-6)]Man(b1-4)GlcNAc(b1-4)GlcNAc
Assay: glycan array binding signal (z-score within array); higher = stronger binding
Conditions: glycan notation: IUPAC condensed, linker removed
The sample as a whole holds a higher share of the strongest signals than the screen did.
Answers are plain numbers.

binder="Langerin K313I (Homo sapiens), Q9UJ71 (protein) STLNAQIPELKSDLEKASALNTKIRALQGSLENMSKLLKRQNDILQVVSQGWKYFKGNFYYFSLIPKTWYSAEQFCVSRNSHLTSVTSESEQEFLYKTAGGLIYWIGLTKAGMEGDWSWVDDTPFNKVQSARFWIPGEPNNAGNNEHCGNIKAPSLQAWNDAPCDITFLFICKRPYVPSEP" reported_result=0.468

Provide glycan array binding signal (z-score) values for the following items, in order.
1. Lb MiSSP8 (Laccaria bicolor) (protein) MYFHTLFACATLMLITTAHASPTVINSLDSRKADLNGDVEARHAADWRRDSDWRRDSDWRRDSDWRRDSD
2. CCL1 (Coprinopsis cinerea) (protein) MDTQAKPPAGRYVIYNRVLSPNGEKLALTYPGYQREALTLTPLHHSANQIWILNNWDATTSSLTPETARNTQVGWGSGNVPIVLPPGNYVWTLASSAGGYIIQDGGKTVYWNAGEAVANTKVSIGGDNGLQARWIFERV
3. FGF1 (Homo sapiens), P05230 (protein) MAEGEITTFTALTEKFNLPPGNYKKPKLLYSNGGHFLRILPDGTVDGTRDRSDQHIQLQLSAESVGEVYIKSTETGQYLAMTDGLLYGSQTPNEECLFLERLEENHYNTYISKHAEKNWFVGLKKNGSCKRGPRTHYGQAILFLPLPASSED
4. Banana lectin (Musa acuminata) (protein) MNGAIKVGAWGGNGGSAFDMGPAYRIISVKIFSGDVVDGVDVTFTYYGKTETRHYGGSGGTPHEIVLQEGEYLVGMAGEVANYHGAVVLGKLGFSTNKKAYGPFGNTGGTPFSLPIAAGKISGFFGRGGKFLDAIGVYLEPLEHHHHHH

Resp:
[1.55, -0.081, 3.56, 0.245]
